Where do these numbers come from? They come from ChEMBL document CHEMBL1201862.

Test system: SR
Assay: NCI tumour cell line growth inhibition, 48 h
Calls of active or inactive are those of the source. Rule as the data show it: active = GI50 up to about 1.1 µM and inactive = higher. Where a SMILES comes first, the peptide text is derived from it. The star is where a group is joined. Cbz = O=C(OCc1ccccc1)*
Return exactly one item of yes (1) = active, no (0) = inactive

{"molecule": "Cc1ccc2nc(-c3nccn3C)cc(C(=O)NC(C)CN(C)C)c2c1 (centres undefined)", "qualitative_label": "yes (1)"}
{"molecule": "CN(C)[C@@H]1C(O)=C(C(=O)NCNc2nc3[nH]nnc3c(=O)[nH]2)C(=O)[C@@]2(O)C(O)=C3C(=O)c4c(O)cccc4[C@@](C)(O)[C@H]3C[C@@H]12", "qualitative_label": "yes (1)"}
{"molecule": "CCOC(=O)CCC(NC(=O)C(CC(=O)OC)NC(=O)OCc1ccccc1)C(=O)NC(CC(=O)OC)C(=O)NC(CCC(=O)OCC)C(=O)NC(CC(=O)OC)C(=O)NC(CCC(=O)OCC)C(=O)NC(CC(=O)OCC)C(=O)OCC (centres undefined) (Cbz-D(OMe)E(OEt)D(OMe)E(OEt)D(OMe)E(OEt)D(OEt)-OEt; configuration not given here)", "qualitative_label": "no (0)"}

Attention now turns to another entry.
Just curious, what result did Cc1cc(S(=O)(=O)NC2=Nc3cccc4cccc(c34)N2)c(S)cc1Cl get here?
no (0)

###

For each record, write down the corresponding GI50.
Test system: SN12C
Assay: NCI tumour cell line growth inhibition, 48 h
Calls of active or inactive are those of the source. Cut-off read from the data, not from the text of the source: active = GI50 up to about 1.1 µM and inactive = higher.

{"compound": "CC1(C)N=C(/C(Cl)=[N+](/[O-])C(=O)c2ccc(Cl)cc2)C(C)(C)N1O", "GI50": "23.8 µM (inactive)"}
{"compound": "COc1ccc(/C=C/C(=O)c2cc(OC)cc(OC)c2)cc1", "GI50": "3.56 µM (inactive)"}
{"compound": "CC1(C)C[C@H]2[C@H](O)C(CO)=C3C(=O)[C@@H](O)[C@]3(C)[C@H]2C1", "GI50": "> 100 µM (inactive)"}

Hi there! I need GI50 for each item below, if you can.
1. Brc1cccc(Nc2ncnc3sc4c(c23)CCC2(C4)OCCO2)c1
2. CCCCSC1=N/C(=C\c2ccco2)C(Cl)=N1
3. COC(=O)/C(=C/c1ccc(OC)cc1)NC(=O)c1ccccc1
4. C/C(=C\CNc1ncnc2c1ncn2C1CCCCO1)COP(=O)(O)O (stereo not given)
5. CC12CC3OC(=O)C1COC14OC5(C2C1=O)C(O)(CCC1C4CC(O)C2(O)CC=CC(=O)C12C)C(=O)OC35C (stereo not given)

["27.4 µM (inactive)", "> 100 µM (inactive)", "> 100 µM (inactive)", "> 100 µM (inactive)", "> 100 µM (inactive)"]

Go through the list and state GI50 for each entry.
1. Cc1ccc2nc(-c3nccn3C)cc(C(=O)NC(C)CN(C)C)c2c1 (stereo not given)
2. CCCCCC(=O)Cc1cc(OC)cc2c1C(=O)Oc1cc(O)c(C(=O)O)c(CC(=O)CCCCC)c1O2

> 100 µM (inactive)
> 10 µM (inactive)

###

Tested on: NCI-H460
Test: NCI tumour cell line growth inhibition, 48 h
Active and inactive are the calls of the source. No stated cut-off is given here; in the data, active = GI50 up to about 1.1 µM and inactive = higher.
Result category, one only: active, inactive

These recorded examples may help you get a feel for the data.
{"molecule": "CCCCCC(=O)Cc1cc(OC)cc2c1C(=O)Oc1cc(O)c(C(=O)O)c(CC(=O)CCCCC)c1O2", "qualitative_label": "inactive"}
{"molecule": "COc1ccc2oc(OC)c(CC=C(C)C)c(=O)c2c1C", "qualitative_label": "inactive"}
{"molecule": "NCCCC1NC(=O)/C(=C(O)/C=C/C2CCC[C@@H]2CC2SCCS2)C1=O (stereo not given in full)", "qualitative_label": "inactive"}
{"molecule": "CC1CC[C@@]2(OC1)OC1C[C@H]3[C@@H]4CC=C5C[C@@H](OC6OC(CO)C(OC7OC(CO)C(O)C(O)C7O)C(O)C6OC6OC(C)C(O)C(O)C6O)CC[C@]5(C)[C@H]4CC[C@]3(C)C1[C@@H]2C (stereo not given in full)", "qualitative_label": "active"}
{"molecule": "Cc1ccc(NC(=O)CC(=O)N2N=C(N(c3ccccc3)c3ccccc3)CC2c2ccccc2)cc1 (stereo not given)", "qualitative_label": "inactive"}

Test call for this molecule, please: Cc1ccc(S(=O)(=O)N(CC(O)COc2ccccc2)c2c(F)cccc2F)cc1 (stereo not given)
inactive

What did the test return for COc1ccc(C2CC(=O)c3c(O)cc(O)cc3O2)cc1O (stereo not given) ?
inactive
